Cited source for all entries: paper PMC7076388

Target: 20S proteasome isolated from erythrocytes (Homo sapiens)
Test: 20S proteasome inhibition (chymotrypsin-like activity)
Assay type: biochemical
Design: purified 20S proteasome isolated from erythrocytes (Enzo Life Sciences); purchased Enzo Life Sciences; host or cells: erythrocytes
Settings: dose-response assay
Endpoint: IC50 (µM)
Record the value in µM, omitting the unit from your answer.

# IC50 (compound: COc1ccc2cc(C(C)C(=O)NC(Cc3ccc(O)cc3)C(=O)NC(=Cc3ccccc3)C(=O)O)ccc2c1 [Compound 1, Npx-L-Tyr-Z-ΔPhe-OH] ) is 30.6
